Provenance of the data: ChEMBL document CHEMBL2390894

# TARGET OR SYSTEM: UniProt O75164
# Sequence (O75164 whole entry): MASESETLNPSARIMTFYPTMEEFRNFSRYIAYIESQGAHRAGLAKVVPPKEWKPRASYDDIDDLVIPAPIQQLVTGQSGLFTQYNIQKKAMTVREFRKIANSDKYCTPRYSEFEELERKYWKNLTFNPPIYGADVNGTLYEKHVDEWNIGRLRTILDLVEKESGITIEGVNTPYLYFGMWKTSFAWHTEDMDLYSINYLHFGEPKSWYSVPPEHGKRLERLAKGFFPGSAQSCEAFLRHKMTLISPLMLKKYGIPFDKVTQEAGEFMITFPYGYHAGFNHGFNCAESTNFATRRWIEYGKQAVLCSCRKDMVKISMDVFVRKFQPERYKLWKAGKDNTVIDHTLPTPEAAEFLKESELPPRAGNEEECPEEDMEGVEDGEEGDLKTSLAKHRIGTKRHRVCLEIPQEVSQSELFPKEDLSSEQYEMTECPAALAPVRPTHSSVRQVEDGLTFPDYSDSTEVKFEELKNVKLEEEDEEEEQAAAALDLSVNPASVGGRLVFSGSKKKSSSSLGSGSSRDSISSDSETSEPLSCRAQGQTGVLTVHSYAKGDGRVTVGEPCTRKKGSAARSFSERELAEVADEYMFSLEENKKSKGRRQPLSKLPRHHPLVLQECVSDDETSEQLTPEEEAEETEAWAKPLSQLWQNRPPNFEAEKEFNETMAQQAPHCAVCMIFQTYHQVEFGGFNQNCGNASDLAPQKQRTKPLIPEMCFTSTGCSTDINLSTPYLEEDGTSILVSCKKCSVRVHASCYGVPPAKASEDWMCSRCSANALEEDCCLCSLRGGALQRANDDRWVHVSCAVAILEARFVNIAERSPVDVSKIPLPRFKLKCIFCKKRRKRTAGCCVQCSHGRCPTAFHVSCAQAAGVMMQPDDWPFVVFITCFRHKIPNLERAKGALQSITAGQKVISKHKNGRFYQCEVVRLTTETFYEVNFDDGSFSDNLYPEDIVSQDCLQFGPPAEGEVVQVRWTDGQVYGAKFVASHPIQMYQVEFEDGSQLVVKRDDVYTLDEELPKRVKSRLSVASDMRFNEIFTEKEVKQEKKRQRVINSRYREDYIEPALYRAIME
MEASUREMENT TYPE: IC50 (µM)
Use µM as the unit, but write only the number.

QUERY: # get_value(readout='IC50', item= O=C(O)/C=C/C(=O)N(O)CCCCNCc1ccc(COC(=O)Nc2cccc3ccccc23)cc1 )
RESULT: 3.3

----------
# TARGET OR SYSTEM: Lysine-specific demethylase 2A (Homo sapiens)
# Sequence (Q9Y2K7 whole entry): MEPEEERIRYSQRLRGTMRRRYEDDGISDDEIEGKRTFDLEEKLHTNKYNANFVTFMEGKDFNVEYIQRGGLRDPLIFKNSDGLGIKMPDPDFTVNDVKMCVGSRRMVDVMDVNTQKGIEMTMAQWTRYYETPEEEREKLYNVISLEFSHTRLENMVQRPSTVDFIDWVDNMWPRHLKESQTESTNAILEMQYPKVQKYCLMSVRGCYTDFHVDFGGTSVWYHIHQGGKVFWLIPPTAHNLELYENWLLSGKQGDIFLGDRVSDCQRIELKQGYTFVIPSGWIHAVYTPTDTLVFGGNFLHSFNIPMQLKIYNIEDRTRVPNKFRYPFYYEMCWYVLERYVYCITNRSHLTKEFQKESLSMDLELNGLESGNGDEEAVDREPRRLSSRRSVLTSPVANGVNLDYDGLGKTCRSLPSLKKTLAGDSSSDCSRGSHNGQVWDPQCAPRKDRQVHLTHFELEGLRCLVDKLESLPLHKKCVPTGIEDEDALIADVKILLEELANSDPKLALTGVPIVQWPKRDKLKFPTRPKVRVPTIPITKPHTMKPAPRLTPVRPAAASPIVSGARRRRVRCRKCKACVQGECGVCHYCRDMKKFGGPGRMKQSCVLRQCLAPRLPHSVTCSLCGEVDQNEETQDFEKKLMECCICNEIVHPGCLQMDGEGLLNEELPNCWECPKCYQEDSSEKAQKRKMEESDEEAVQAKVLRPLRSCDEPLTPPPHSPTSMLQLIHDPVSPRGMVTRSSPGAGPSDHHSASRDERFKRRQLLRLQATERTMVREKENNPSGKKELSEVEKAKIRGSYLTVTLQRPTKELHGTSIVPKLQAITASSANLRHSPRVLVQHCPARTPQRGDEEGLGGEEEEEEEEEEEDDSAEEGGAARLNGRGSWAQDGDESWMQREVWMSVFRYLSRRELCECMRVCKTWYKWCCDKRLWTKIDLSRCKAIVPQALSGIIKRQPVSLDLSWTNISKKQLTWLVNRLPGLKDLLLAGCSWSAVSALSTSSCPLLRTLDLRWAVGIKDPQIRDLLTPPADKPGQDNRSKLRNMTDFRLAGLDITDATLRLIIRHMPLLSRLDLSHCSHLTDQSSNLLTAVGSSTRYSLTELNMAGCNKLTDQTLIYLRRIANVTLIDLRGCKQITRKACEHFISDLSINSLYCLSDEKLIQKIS
# TEST DESCRIPTION: Binding affinity to recombinant 6xHis-tagged JHDM1A (unknown origin) expressed in Escherichia coli BL21 by fluorescence polarization assay in presence of Co2+
MEASUREMENT TYPE: Kd (nM)
Use nM as the unit, but write only the number.

QUERY: # get_value(readout='Kd', item= NCc1ccc(CN(CCCCN(O)C(=O)/C=C/C(=O)O)C(=S)Nc2ccc(-c3c4ccc(=O)cc-4oc4cc(O)ccc34)c(C(=O)O)c2)cc1 )
RESULT: 22

----------
Could you please report measured pIC50 for the items listed next?
# TARGET OR SYSTEM: Lysine-specific demethylase 2A (Homo sapiens)
# TEST DESCRIPTION: Inhibition of recombinant 6xHis-tagged JHDM1A (unknown origin) expressed in Escherichia coli BL21 using SAPATGGVK(Me2)KPHRYRPGTVAL as substrate incubated for 15 mins prior to substrate addition measured after 50 mins by rapid fire mass spectrophotometric analysis
Expect pIC50 as a plain number equal to -log10 of the molar concentration.

QUERY: # get_value(readout='pIC50', item= NCc1ccc(CNCCCCN(O)C(=O)/C=C/C(=O)O)cc1 )
RESULT: 6.38

QUERY: Ok, now NCc1ccc(CN(CCCCN(O)C(=O)/C=C/C(=O)O)C(=S)Nc2ccc(-c3c4ccc(=O)cc-4oc4cc(O)ccc34)c(C(=O)O)c2)cc1
RESULT: 6.05
